# method.summary: Biodistribution, CHO-K1-GRPR + CHO-K1-PSMA dual xenograft mice
# experimental.setup: female, NOD SCID, mouse, blood, intravenous, 1.08 nmol, total radioactivity, Biodistribution: Blood, Mouse #6; single tracer; dual xenograft; 25.2 h p.i.; 1.08 nmol
measurement.name: tissue uptake at 25.2 h (%ID/g)
Please reply with the bare figure in %ID/g and do not write the unit itself.

Look up tissue uptake at 25.2 h: CC(C)C[C@H](NC(=O)C[C@H](O)[C@H](CC(C)C)NC(=O)[C@H](Cc1c[nH]cn1)NC(=O)CNC(=O)[C@@H](NC(=O)[C@H](C)NC(=O)[C@H](Cc1c[nH]c2ccccc12)NC(=O)[C@H](CCC(N)=O)NC(=O)[C@@H](Cc1ccccc1)NC(=O)CN1CCC(NC(=O)CN2CCN(CC(=O)O)CCN(CC(=O)O)CCN(CC(=O)O)CC2)CC1)C(C)C)C(N)=O [[^111In]In-RM2, metal not drawn]
0.01
